Every entry's value here was drawn from patent US20220144815A1.

- assay.method.text: Log P by HPLC on reversed phase columns, method [a] (EEC directive 79/831 Annex V.A8)
- Assay type: physicochemical
- settings: log P determined according to method [a] (HPLC on reversed phase columns)

molecule | logP
O=C(Nc1ccc(-c2nnc(C(F)F)o2)cn1)c1ccc(F)cc1F [Example I-055] | 2.77
Fc1ccc(Cc2ncc(-c3nnc(C(F)F)o3)cn2)cc1 [Example I-091] | 2.59
FC(F)c1nnc(-c2ccc(Br)cc2)o1 [Example I-009] | 2.89
CC(C)(Nc1ncc(-c2nnc(C(F)F)o2)cn1)C1CC1 [Example I-084] | 3.26
COc1ccc(-c2ncc(-c3nnc(C(F)F)o3)cn2)cc1 [Example I-089] | 3.01
